Test system: MDA-MB-436 (a BRCA-1-mutated breast cancer cell line)
Assay: Cell proliferation assay, three-day, CellTiter-Glo, MDA-MB-436
Assay type: cell-based
Settings: MDA-MB-436; curve fit parameter (Inh %); '= 100.0' is a constrained value
experimental.readout: Top

[[record]]
compound = "NC(=O)c1cccc2[nH]c(C3CCN(CCC(=O)Nc4ccccc4)C3)nc12 (stereo not drawn)"
result = "= 100.0"

[[record]]
compound = "NC(=O)c1cccc2[nH]c(C3CCN(CC(=O)c4ccccc4)C3)nc12 (stereo not drawn)"
result = "= 100.0"

[[record]]
compound = "NC(=O)c1cccc2[nH]c(C3CCN(CCC(O)c4ccccc4)C3)nc12 (stereo not drawn)"
result = "= 100.0"


meta.source: paper PMC6572064
